# Protocol details: Human HepG2 cell viability assay in 384 well format
# Assay type: toxicity, cell-based
# Design: dose 125 nL, time 70.5 hour; concentration not given beside the values
# Condition context: HepG2 cells, read-out: Inhibition
Metric name: cytotoxicity at 70.5 h (%)

>>> print(df.to_string())
                                    molecule  assay_value
 0      Cc1nn2cccnc2c1C(=O)NCc1ccccc1OCC1CC1        -13.8
 1  Cc1cc(C(=O)Nc2ccc(OCCN3CCN(C)CC3)cc2)[nH]n1         0.21
 2   CSc1ccccc1CN1CCCn2nc(CNC(=O)N(C)C)cc2C1        -1.85
 3  Cc1ccc([C@@H]2CN(C(=O)CCc3cc(Cl)no3)C[C@H]2N(C)C)cc1         11.1
 4  Cc1cc2cc(C(=O)N[C@@H]3CC[C@@H](N4CCNC(=O)C4)[C@@H]3O)ccc2o1        -7.85
 5  Cc1cc(C2CCCN(Cc3ncc(C(C)C)o3)C2)n[nH]1 (stereo unspecified)        -6.54
 6  CCOC(=O)c1n[nH]cc1CN1CCCC(N(C)Cc2ccccc2)C1 (stereo unspecified)         2.53
 7         CNc1ncc2c(n1)CN(c1cccc(OC)c1)C2=O        -13.9
 8  Oc1ccccc1CN1CCCCCC1c1cccs1 (stereo unspecified)        -5.04
 9  CN(C)C(=O)C1CN(c2ccncn2)CCN(C2CCOCC2)C1 (stereo unspecified)         12.4
10  CC(C)N1[C@@H](C(=O)NCC2CC2)C[C@@H]2CN(Cc3ccco3)C[C@@H]21        -13.6

====

# Protocol details: Human HepG2 cell viability assay in 384 well format
# Format: toxicity, cell-based
# Design: dose 125 nL, time 70.5 hour; concentration not given beside the values
# Condition context: HepG2 cells, read-out: Inhibition
Metric name: cytotoxicity at 70.5 h (%)

                                   molecule             metric_name  assay_value
0  Cc1ccc2c(c1)nc1n2[C@@H](CNC(=O)c2ccccn2)COC1  cytotoxicity at 70.5 h         11.4
1  CCN(CC1CCOC1)C(=O)Nc1ccc(N2CCCC2)nc1 (stereo unspecified)  cytotoxicity at 70.5 h       -0.947
2  CCc1nnc(CNC2CCCN(Cc3noc(C4CC4)n3)C2)o1 (stereo unspecified)  cytotoxicity at 70.5 h        -9.18
3  Cc1ccc(C(CNC(=O)c2c(C)noc2C(C)C)N(C)C)cc1 (stereo unspecified)  cytotoxicity at 70.5 h        -4.44
4  O=C(CC1CC1)N1CCC2(CC1)CN(c1cccnc1)C(=O)CO2  cytotoxicity at 70.5 h        -4.69
5  CC1(C)CN=C(N2CCN(CC3CCCO3)CC2)S1 (stereo unspecified)  cytotoxicity at 70.5 h        -7.36

====

# Protocol details: Human HepG2 cell viability assay in 384 well format
# Assay type: toxicity, cell-based
# Parameters: dose 125 nL, time 70.5 hour; concentration not given beside the values
# Condition context: HepG2 cells, read-out: Inhibition
Metric name: cytotoxicity at 70.5 h (%)

>>> print(df.to_string())
                                   compound             metric_name  assay_value
0  Cc1ccc2c(n1)N(CC(C)C)CCN(C(=O)Cc1ccccn1)C2  cytotoxicity at 70.5 h         -4.9
1  COCCCN1C(=O)CC[C@H]2CN(Cc3cc4ccccc4o3)CC[C@H]21  cytotoxicity at 70.5 h        -1.98
2    CC(=O)N1Cc2ccccc2C[C@H]1C(=O)Nc1ccccn1  cytotoxicity at 70.5 h          -12
3  CNc1cc(C2CCCN2C(=O)c2ccc(=O)[nH]n2)ccn1 (stereo unspecified)  cytotoxicity at 70.5 h        -2.78
4     CCCS(=O)(=O)N1CCc2onc(CNc3ncccn3)c2C1  cytotoxicity at 70.5 h         6.05
5    Cn1nc(C2CCN(C(=O)c3cccs3)CC2)c2cccnc21  cytotoxicity at 70.5 h        -4.94
